Each item that follows carries a reported EC50.
System: MCF7
measurementProtocol: Cytotoxicity against human MCF7 cells
Assay type: functional
cond: read-out: ED50 (the source's name)

-- ask Recorded EC50 of COc1ccc(C2COc3c(ccc4c3C=CC(C)(CCC=C(C)C)O4)C2)c(O)c1 (centres undefined) [HEMINITIDULAN] , please.
-- reply > 5 µg/mL

-- ask Please report the recorded EC50 for COc1ccc([C@]2(O)COc3c(ccc4c3C=CC(C)(C)O4)C2)c(O)c1 .
-- reply > 5 µg/mL

---

Tested on: Lu1
measurementProtocol: Cytotoxicity against human Lu1 cells
Format: functional
cond: read-out: ED50 (the source's name)
EC50 by entry:

Example cases with answers are listed next.
{"molecule": "CC1(C)C=Cc2c(cc3c(c2O)C(=O)[C@@H](c2cc4c(cc2O)OCO4)CO3)O1 [(3S)-ISODISCOLORANONE A]", "EC50": "> 5 µg/mL"}
{"molecule": "COc1ccc([C@]2(O)COc3c(ccc4c3C=CC(C)(C)O4)C2)c(O)c1", "EC50": "> 5 µg/mL"}
{"molecule": "CC(C)=CCCC1(C)C=Cc2c(ccc3c2OCC(c2cc4c(cc2O)OCO4)C3)O1 (stereo not drawn) [NITIDULAN]", "EC50": "> 5 µg/mL"}
{"molecule": "COc1ccc(C2COc3c(ccc4c3C=CC(C)(CCC=C(C)C)O4)C2)c(O)c1 (stereo not drawn) [HEMINITIDULAN]", "EC50": "> 5 µg/mL"}

-- ask Please report the recorded EC50 for CC1(C)C=Cc2c(c(O)cc3c2OC[C@@H]2c4cc5c(cc4O[C@H]32)OCO5)O1 .
-- reply > 5 µg/mL

-- ask Quick one: EC50 for COc1ccc([C@H]2COc3c4c(cc(O)c3C2=O)OC(C)(CCC=C(C)C)C=C4)c(O)c1O (stereo partly drawn) [DISCOLORANONE] ?
-- reply 9.6 µg/mL

-- ask I have this molecule here, COc1ccc([C@H]2COc3c(ccc4c3C=CC(C)(CCC=C(C)C)O4)C2)c(O)c1O (stereo partly drawn) [NITIDULIN] , and I need its recorded EC50.
-- reply 4.2 µg/mL

-- ask Which EC50 is listed for CC1(C)C=Cc2c(ccc3c2OCC(c2cc4c(cc2O)OCO4)C3)O1 (stereo not drawn) [LEIOCIN] ?
-- reply > 5 µg/mL

---

Test system: Lu1
measurementProtocol: Cytotoxicity against human Lu1 cells
Assay type: functional
cond: read-out: ED50 (the source's name)
Consider the following compounds and their measured EC50 readings.

Some entries whose results are on file:
{"compound": "CC1(C)C=Cc2c(c(O)cc3c2OCC(c2cc4c(cc2O)OCO4)C3)O1 (stereo unspecified)", "EC50": "> 5 µg/mL"}
{"compound": "CC1(C)C=Cc2c(ccc3c2OCC2c4cc5c(cc4OC32)OCO5)O1 (stereo unspecified)", "EC50": "> 5 µg/mL"}
{"compound": "C=C(CO)[C@H]1Cc2c(ccc3c2O[C@@H]2COc4cc(OC)c(OC)cc4[C@]2(O)C3=O)O1", "EC50": "3.1 µg/mL"}
{"compound": "COc1ccc([C@H]2COc3cc4c(c(O)c3C2=O)C=CC(C)(CCC=C(C)C)O4)c(O)c1O (stereo partly specified)", "EC50": "> 5 µg/mL"}
{"compound": "C=C(CO)[C@H]1Cc2c(ccc3c2O[C@@H]2COc4cc(OC)c(OC)cc4[C@@H]2C3=O)O1", "EC50": "4.8 µg/mL"}

# ---- query compound ----
-- ask Any idea what EC50 was measured for CC1(C)C=Cc2c(cc(O)c3c2OCC(c2cc4c(cc2O)OCO4)C3=O)O1 (racemic) ?
-- reply > 5 µg/mL
